TEST TARGET: Ectonucleotide pyrophosphatase/phosphodiesterase family member 1 (Homo sapiens)
PROTOCOL DETAILS: Inhibition of human NPP1 using p-Nph-5'-TMP as substrate at 10 uM
MEASURE: inhibition
State the result as a value with its unit after it.

| SMILES RECORD | inhibition |
| --- | --- |
| COc1cc(NC(=O)CSc2nc3cccnc3[nH]2)cc(OC)c1 | 38% |
| CC(=O)c1cccc(NC(=O)CSc2nc3cccnc3[nH]2)c1 | 50% |
| O=C(CSc1nc2cccnc2[nH]1)Nc1cccc(Br)c1 | 23% |
| COc1ccc(NC(=O)CSc2nc3ccc(N4CCOCC4)nc3[nH]2)cc1OC | 45% |
| COc1ccccc1NC(=O)CSc1nc2ccc[nH]c-2n1 | 21% |
| COc1ccc(NC(=O)CSc2nc3ccccc3[nH]2)cc1OC | 34% |

# inhibition lookup, item O=C(CSc1nc2cccnc2[nH]1)Nc1ccc(Cl)cc1
17%

# inhibition lookup, item O=C(CSc1nc2cccnc2[nH]1)Nc1ccc(Cl)c(Cl)c1
10%

# inhibition lookup, item O=C(CSc1nc2cccnc2[nH]1)Nc1ccccc1
30%

# inhibition lookup, item COc1ccc(NC(=O)CSc2nc3cccnc3[nH]2)cc1
48%

# inhibition lookup, item COc1ccc(NC(=O)CSc2nc3c(=O)n(C)c(=O)n(C)c3[nH]2)cc1OC
23%

###

// Ki lookup, one value per entry
TEST TARGET: Ectonucleotide pyrophosphatase/phosphodiesterase family member 1 (Homo sapiens, UniProt P22413)
Sequence (P22413 whole entry): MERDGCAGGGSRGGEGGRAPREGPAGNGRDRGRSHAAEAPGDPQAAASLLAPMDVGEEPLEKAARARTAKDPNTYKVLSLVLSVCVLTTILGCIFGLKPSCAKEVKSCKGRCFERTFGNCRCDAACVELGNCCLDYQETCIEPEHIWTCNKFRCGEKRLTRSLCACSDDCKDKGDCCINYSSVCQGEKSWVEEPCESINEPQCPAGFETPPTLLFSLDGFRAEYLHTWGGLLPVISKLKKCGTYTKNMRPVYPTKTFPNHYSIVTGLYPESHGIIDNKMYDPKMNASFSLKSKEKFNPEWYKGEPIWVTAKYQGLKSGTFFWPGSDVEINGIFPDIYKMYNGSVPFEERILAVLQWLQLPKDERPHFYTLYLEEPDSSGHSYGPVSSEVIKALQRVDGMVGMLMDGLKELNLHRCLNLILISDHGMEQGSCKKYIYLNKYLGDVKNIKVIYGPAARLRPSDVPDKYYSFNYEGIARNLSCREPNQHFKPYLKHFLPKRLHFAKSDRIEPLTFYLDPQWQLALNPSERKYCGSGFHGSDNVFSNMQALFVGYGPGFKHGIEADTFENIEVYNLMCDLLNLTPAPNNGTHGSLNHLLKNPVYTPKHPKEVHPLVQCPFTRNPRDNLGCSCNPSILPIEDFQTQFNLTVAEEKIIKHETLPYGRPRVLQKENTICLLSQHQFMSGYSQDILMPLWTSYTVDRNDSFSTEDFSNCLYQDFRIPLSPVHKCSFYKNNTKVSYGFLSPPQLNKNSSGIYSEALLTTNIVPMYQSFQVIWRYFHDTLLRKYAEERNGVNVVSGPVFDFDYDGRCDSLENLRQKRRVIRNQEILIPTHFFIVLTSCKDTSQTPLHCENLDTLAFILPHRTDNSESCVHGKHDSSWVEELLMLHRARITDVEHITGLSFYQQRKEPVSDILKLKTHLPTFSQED
PROTOCOL DETAILS: Inhibition of human NPP1 using p-Nph-5'-TMP as substrate
Answer format: numeric, nM implied, no suffix.

Look over these answered cases.
| SMILES RECORD | Ki (nM) |
| --- | --- |
| COc1ccc(NC(=O)CSc2nc3c(=O)[nH]c(=O)[nH]c3[nH]2)cc1OC | 35.8 |
| COc1ccc(NC(=O)CSc2nc3c(OC)nc(N)nc3[nH]2)cc1OC | 8040 |
| COc1ccc(NC(=O)CSc2nc3nccnc3[nH]2)cc1OC | 131 |

# Ki lookup, item COc1ccc(NC(=O)CSc2nc3cc(Br)cnc3[nH]2)cc1OC
192

# Ki lookup, item COc1ccc(NC(=O)CSc2nc3c(C)ccnc3[nH]2)cc1OC
127

# Ki lookup, item COc1ccc(NC(=O)CSc2nc3c(N)nc(SC)nc3[nH]2)cc1OC
152

###

TEST TARGET: Ectonucleotide pyrophosphatase/phosphodiesterase family member 1 (Homo sapiens)
PROTOCOL DETAILS: Inhibition of human NPP1 using p-Nph-5'-TMP as substrate
Category key, based on recorded Ki: group 1 = under 100 nM, group 2 = from 100 nM up to 1000 nM, group 3 = 1000 nM and over

Look over these answered cases.
| SMILES RECORD | LABEL VALUE |
| --- | --- |
| COc1ccc(NC(=O)CSc2nc3cncnc3[nH]2)cc1OC | group 2 |
| COc1ccc(NC(=O)CSc2nc3cc(Cl)cnc3[nH]2)cc1OC | group 2 |
| COc1ccc(NC(=O)CSc2nc3c(N)nc(N)nc3[nH]2)cc1OC | group 3 |
| COc1ccc(NC(=O)CSc2nc3cnccc3[nH]2)cc1OC | group 1 |
| COc1ccc(NC(=O)CSc2nc3c(SC)nc(N)nc3[nH]2)cc1OC | group 3 |

Would you mind sorting COc1ccc(NC(=O)CSc2nc3c(N)ncnc3[nH]2)cc1OC into the appropriate category?
group 1

Would you mind sorting COc1ccc(NC(=O)CSc2nc3c(OC(C)C)nc(N)nc3[nH]2)cc1OC into the appropriate category?
group 3

Would you mind sorting COc1ccc(NC(=O)CSc2nc3ccc[nH]c-3n2)cc1OC into the appropriate category?
group 2

Would you mind sorting COc1ccc(NC(=O)CSc2nc3c(=O)[nH]cnc3[nH]2)cc1OC into the appropriate category?
group 1

###

TEST TARGET: Ectonucleotide pyrophosphatase/phosphodiesterase family member 1 (Homo sapiens)
Sequence (P22413 whole entry): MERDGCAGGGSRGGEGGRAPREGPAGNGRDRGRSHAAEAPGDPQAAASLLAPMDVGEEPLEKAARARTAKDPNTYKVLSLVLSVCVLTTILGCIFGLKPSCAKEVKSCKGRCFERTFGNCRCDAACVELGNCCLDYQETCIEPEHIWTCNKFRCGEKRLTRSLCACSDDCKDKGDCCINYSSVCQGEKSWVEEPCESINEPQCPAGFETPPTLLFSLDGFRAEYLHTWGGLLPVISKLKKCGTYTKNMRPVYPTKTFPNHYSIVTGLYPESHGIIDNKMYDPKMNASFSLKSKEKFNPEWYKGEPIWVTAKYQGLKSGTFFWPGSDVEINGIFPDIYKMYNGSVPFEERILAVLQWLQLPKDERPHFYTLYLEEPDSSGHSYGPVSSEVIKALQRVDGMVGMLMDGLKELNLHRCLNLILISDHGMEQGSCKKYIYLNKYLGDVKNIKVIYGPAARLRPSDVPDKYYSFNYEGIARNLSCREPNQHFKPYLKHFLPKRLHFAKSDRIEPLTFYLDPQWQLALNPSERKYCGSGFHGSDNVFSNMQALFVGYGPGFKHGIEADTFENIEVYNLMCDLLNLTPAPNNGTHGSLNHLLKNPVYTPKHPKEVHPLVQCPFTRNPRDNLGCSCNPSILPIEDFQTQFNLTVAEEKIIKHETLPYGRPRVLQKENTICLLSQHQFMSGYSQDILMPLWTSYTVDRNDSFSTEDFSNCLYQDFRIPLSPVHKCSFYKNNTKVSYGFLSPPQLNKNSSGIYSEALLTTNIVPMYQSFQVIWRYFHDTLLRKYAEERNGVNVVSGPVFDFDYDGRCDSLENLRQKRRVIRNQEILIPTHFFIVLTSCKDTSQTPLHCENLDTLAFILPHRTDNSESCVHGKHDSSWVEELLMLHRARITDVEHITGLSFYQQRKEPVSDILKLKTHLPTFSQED
PROTOCOL DETAILS: Competitive inhibition of human NPP1 using ATP as substrate by Lineweaver-Burk plot analysis
MEASURE: pKi
In simple prose, pKi is minus the logarithm base ten of a concentration in moles per litre.

Look over these answered cases.
| SMILES RECORD | pKi |
| --- | --- |
| COc1ccc(NC(=O)CSc2nc3ccc[nH]c-3n2)cc1OC | 4.65 |
| COc1ccc(NC(=O)CSc2nc3cnccc3[nH]2)cc1OC | 4.53 |
| COc1ccc(NC(=O)CSc2nc3c(OC(C)C)nc(N)nc3[nH]2)cc1OC | 4.05 |
| COc1ccc(NC(=O)CSc2nc3c(C)ccnc3[nH]2)cc1OC | 5.12 |
| COc1ccc(NC(=O)CSc2nc3cncnc3[nH]2)cc1OC | 4.80 |

# pKi lookup, item COc1ccc(NC(=O)CSc2nc3c(N)nc(N)nc3[nH]2)cc1OC
4.11

###

TEST TARGET: Ectonucleotide pyrophosphatase/phosphodiesterase family member 1 (Homo sapiens, UniProt P22413)
Sequence (P22413 whole entry): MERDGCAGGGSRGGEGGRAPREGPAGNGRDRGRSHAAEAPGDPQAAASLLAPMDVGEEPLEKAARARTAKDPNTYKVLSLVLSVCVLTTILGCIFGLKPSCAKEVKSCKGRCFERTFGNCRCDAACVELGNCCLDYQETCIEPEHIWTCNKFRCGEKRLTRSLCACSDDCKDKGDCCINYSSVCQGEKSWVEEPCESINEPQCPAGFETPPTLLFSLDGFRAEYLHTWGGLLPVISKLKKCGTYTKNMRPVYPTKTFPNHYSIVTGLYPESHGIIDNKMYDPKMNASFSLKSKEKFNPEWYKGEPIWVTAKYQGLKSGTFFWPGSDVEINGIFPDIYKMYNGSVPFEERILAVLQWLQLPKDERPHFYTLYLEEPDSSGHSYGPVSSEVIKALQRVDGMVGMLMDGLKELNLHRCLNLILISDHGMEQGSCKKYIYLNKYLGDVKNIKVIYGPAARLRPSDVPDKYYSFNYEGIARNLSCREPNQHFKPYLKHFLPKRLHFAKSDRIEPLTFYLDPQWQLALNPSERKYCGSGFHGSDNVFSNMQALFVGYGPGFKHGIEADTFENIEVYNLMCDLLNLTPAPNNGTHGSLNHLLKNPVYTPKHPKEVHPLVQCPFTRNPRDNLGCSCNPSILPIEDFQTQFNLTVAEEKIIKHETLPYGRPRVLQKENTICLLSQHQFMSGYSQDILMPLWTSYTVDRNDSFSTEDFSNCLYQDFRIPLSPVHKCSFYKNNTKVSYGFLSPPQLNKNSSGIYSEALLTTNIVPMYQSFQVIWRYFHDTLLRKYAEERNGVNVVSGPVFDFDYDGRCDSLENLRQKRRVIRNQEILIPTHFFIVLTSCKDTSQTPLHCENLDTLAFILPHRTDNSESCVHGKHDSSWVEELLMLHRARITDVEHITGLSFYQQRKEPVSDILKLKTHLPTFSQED
PROTOCOL DETAILS: Competitive inhibition of human NPP1 using ATP as substrate by Lineweaver-Burk plot analysis
MEASURE: Ki (µM)
Answer format: numeric, µM implied, no suffix.

Look over these answered cases.
| SMILES RECORD | Ki, µM |
| --- | --- |
| CCOc1nc(N)nc2[nH]c(SCC(=O)Nc3ccc(OC)c(OC)c3)nc12 | 33.6 |
| COc1ccc(NC(=O)CSc2nc3c(N)nc(SC)nc3[nH]2)cc1OC | 26.7 |
| COc1ccc(NC(=O)CSc2nc3c(N)ncnc3[nH]2)cc1OC | 18 |
| COc1ccc(NC(=O)CSc2nc3c(SC)nc(N)nc3[nH]2)cc1OC | 67.9 |
| COc1ccc(NC(=O)CSc2nc3c(=O)[nH]c(=O)[nH]c3[nH]2)cc1OC | 22.5 |

# Ki lookup, item COc1ccc(NC(=O)CSc2nc3cc(Cl)cnc3[nH]2)cc1OC
9.78

# Ki lookup, item COc1ccc(NC(=O)CSc2nc3nccnc3[nH]2)cc1OC
30.2

# Ki lookup, item COc1ccc(NC(=O)CSc2nc3cc(Br)cnc3[nH]2)cc1OC
10.8

# Ki lookup, item COc1ccc(NC(=O)CSc2nc3c(OC)nc(N)nc3[nH]2)cc1OC
42.2

# Ki lookup, item COc1ccc(NC(=O)CSc2nc3c(=O)[nH]cnc3[nH]2)cc1OC
14.3
